- Test system: MS2 coat protein
- Assay Text: apparent KD of MS2 coat protein; designed switch direction (-1 OFF switch, 1 ON switch): -1; higher = weaker reporter binding
- Details: input ligand: FMN 200 uM
Below is a list of entries, each paired with its recorded apparent KD of MS2 coat protein value.
Field note: include the unit after the figure.

I'm curious: which apparent KD of MS2 coat protein was measured for AAUGUUUGAUACCUUUAAUACAUGAGGAUCACCCAUGUUAUCGAGGAUAUGUAGAAGAGAUGAGAACAGAAGGCGAAGUAAGAG [JR_ExcNG3_Sub097] (Eterna round: R96, puzzle: Exclusion NG 3) tested on MS2 coat protein? 29.5 nM

AGAUAGUGGUGAGGAUAUGAGAAUAGAAAGAAAUCAGAAGGCACACAUGAGGAUCACCCAUGUGAGUUCUUGAGAUUACAUGGU [Prohibition 42 - Jieux - Exclusion NG 1] (Eterna round: R96, puzzle: Exclusion NG 1) , same question. 22.6 nM

For UUGUACCGGUGAGGAUAUCGUUGAUAGAACUUUAUGAUAUACAUGAGGAUCACCCAUGUUACUUUCGAGAAGGCAUCGGAUUAU [ExNG2 6th] (Eterna round: R96, puzzle: Exclusion NG 2) then? 12.3 nM

Further cases:
Request - read-out apparent KD of MS2 coat protein | tested on MS2 coat protein | sequence UCGGGCUCAGAGGAUAUGGGCGAAAAUAUAAAACCAGAAGGCUGAACUUGAGGAUCACCCAAGUACGGGCAAAA [Inxeridi] (Eterna round: R97, puzzle: Exclusion 6) 143 nM

Follow-up item: GGCCUUCCGCGAGCUUUUUACAUGAGGAUCACCCAUGUGGUUUUUAGUCUUAUCCGGCCGGCCGUGUGGCCGGCCGG [-32.9, -53.8, A 12%] (Eterna round: R97, puzzle: Sensor, turn-off variant 1) 26.1 nM

# iterate: AAGAACGUACAAGGAUAUCUCCACCACAACGGCAGAGAAGGUGUACAUGAGGAUCACCCAUGUGACCGAAGGCCCUUAUGGGCC [Xeerergeza] (Eterna round: R96, puzzle: Exclusion NG 1) 79.8 nM

Thanks! And CGAUAAAGCUGAGGAUAUGAGGAGAGAGAGAGAUCAGAAGGCAGACAUGAGGAUCACCCAUGUGAGUUCUCGAAAUUAAAUAUU [Prohibition 48 - Jieux - Exclusion NG 1] (Eterna round: R96, puzzle: Exclusion NG 1) ? 225 nM

Again, but for AUAUUGUGAGGAUAUGAAGUUAGUAUCGAAAGAUACUAAGUUCAGAAGGCACAUGAGGAUCACCCAUGUUUCUC [Long static hairpin v4] (Eterna round: R97, puzzle: Exclusion 4) 710 nM

Try AGUGGGCGCGUAGGAUAUGAGGAUCACCCAUAGAAGGAUAUCGAAAGAGAAGGUCUGAGGAUUACCCAGAAGGACGGGUUUGUA [pwkr exNG2 2xF5 2xFMN.15] (Eterna round: R96, puzzle: Exclusion NG 2) next. 925 nM

Quick one: AAAUGUUGUAAGGAUAUUGAAUAAGAAAACUUACGAGAAGGUGCGACAUGAGGAUCACCCAUGUUCCCAAAGGG [Alacar 2] (Eterna round: R97, puzzle: Exclusion 6) 31.5 nM

----------
Listing: apparent KD of MS2 coat protein of selected sequences
- Test system: MS2 coat protein
- Assay Text: apparent KD of MS2 coat protein; designed switch direction (-1 OFF switch, 1 ON switch): -1; higher = weaker reporter binding
- Details: input ligand: microRNA oligo, concentration not stated
# value in nM; strip the unit string

Field: example entries. Status: answers known.
Which apparent KD of MS2 coat protein is listed for ACAUGAGGAUCACCCAUGUCUGGCUGGUCCGCUCCGGCUGUUGAGGAUAUAGUUCGGUGUUCGCGCUAGAAGGUGAGGGCUGGC [Aenatbe mod 36] (Eterna round: R96, puzzle: Exclusion NG 3) ? 24.4

Then this sequence: UAUUUAUAUGAAGGAUAUACUUAACAUGAGGAUCACCCAUGUGGUGUUGUGAGUGAGUGAGUUUAGUAGAAGGUCAAUUCUUUU [JMF's solution 96] (Eterna round: R96, puzzle: Exclusion NG 2) 415

Note: attention shifts to another entry.
Consider the sequence shown here: CUAGCGAGUGUAGGAUAUCGGACUGUUUCAGUCUGAGAAGGACAUGAGGAUCACCCAUGUGUAGCUACGUGAGUAGCACGCUAG [JL ENG1 3.88] (Eterna round: R96, puzzle: Exclusion NG 1) What is its recorded apparent KD of MS2 coat protein? 15

----------
- System: MS2 coat protein
- Assay Text: apparent KD of MS2 coat protein; higher = weaker reporter binding
- Details: Eterna round: R107; input ligand: arginine 13.2 mM
Measurement Type: apparent KD of MS2 coat protein
Answer as a quantity: numeral, then unit.

Field: example entries. Status: answers known.
Request the reported apparent KD of MS2 coat protein associated with UAUAAAAUAACAGAUACCAGCGUGUUAUAAAACAUGAGGAUCACCCAUGUAGUGAUCAAGCGCCCUUGGCAGCUGGUAUUUUAUG [7.C] 92.3 nM

Next entry: AGUCCUCUGUACCCUGAUGCCCUCACUUUACGAGGACCGGUACGGCCGCCACUCGAAUCCCAACAUGAGGAUCACCCAUGUCGAC [theeternabot_exclusion_MS2_Trp_A_26] 30 nM

Another: GCGUGUUAUAGUCAUCGUGAGCGUCCAUCCCGAGGACCGGUACGGCCGCCACUCGCCACAGGACAUGAGGAUCACCCAUGUUAUG [theeternabot_exclusion_MS2_Trp_A_3] 9.62 nM

Further cases:
I have this sequence here, AUAAUAUAGACGGCCGCCACUAUAAACAUGAGGAACAUGAGGAUCACCCAUGUAUGAGGAUCACCUAGGACCGGGUCAUAUAUUA [AstrosExyTryB#2] , and I need its recorded apparent KD of MS2 coat protein. 39.3 nM

----------
- System: MS2 coat protein
- Assay Text: apparent KD of MS2 coat protein; higher = weaker reporter binding
- Details: Eterna round: R107; input ligand: arginine 13.2 mM
Measurement Type: apparent KD of MS2 coat protein (µM)
Report the value in µM with no unit label.

# annotated cases, reported apparent KD of MS2 coat protein shown
Sample AGACAUGAGGAUCACCCAUGUGAAGUGGAUACCAGCCGCAGCGAUGGCCCUUGGCAGCCAGCUUUGUGUCGAUACAUCCGCACUU [theeternabot_exclusion_MS2_Theo_A_2] — what was its apparent KD of MS2 coat protein? 0.0169

Follow-up item: UAAUAAAUAAAUCCAAGGUGUAGGUCAGAUACCAGCCAGAUAACUGGCCCUUGGCAGCUGAAUAAACCUGAGGAACACCCAGGUA [TheoAS 24 #OpenEnded #MS2Late #AlternativeMS2] 0.0267

Please look at the following sequence next.
Requested read-out: apparent KD of MS2 coat protein. Entry: ACCUACACGGAGACGUGUAGGAGUAAUGAUACCAGCAUGGAGACAUGCCCUUGGCAGCGUUACAUGAGGAUCACCCAUGUACGUU [ETHA #3] 0.0104

----------
- Test system: MS2 coat protein
- Assay Text: apparent KD of MS2 coat protein; designed switch direction (-1 OFF switch, 1 ON switch): -1; higher = weaker reporter binding
- Details: input ligand: none
Measurement Type: apparent KD of MS2 coat protein (nM)
The reply should be a number in nM, with the unit left off.

Value lookup for apparent KD of MS2 coat protein; key = UCCGUGUGAGGAUAUGCGAAUGACGAGUUACCUUGUCGCAAGCAGAAGGUACAUGAGGAUCACCCAUGUCCUAU [Eternabot (L1) Solution 61] (Eterna round: R97, puzzle: Exclusion 4) 20.4

// repeat for AGUGUCAAGCAAGCAAGGAACAUGAGGAUCACCCAUGUCGUACAAUAAACGCCCGCUCGUCGCACGUCGUGCGUAGA [Eternabot (Original) Solution 18] (Eterna round: R97, puzzle: Sensor, turn-off variant 1) and report 27.2

Let us now turn to AUUUACAAGCUAAGAUCCUACAUGAGGAUCACCCAUGUGGUCCGGUGACGUGAGUCACCGGACUUAGCUCGUCUUGC [salish99_S_TOV1_R5_084] (Eterna round: R97, puzzle: Sensor, turn-off variant 1) 38.1

Repeat with CUGUACUGAGGAUAUACAUGAGGAUCACCCAUGUGAUCUAGUGCACGCGUACGUGUACGUAGAAGGCAGUACAG [Mat - Exclusion 3 - Eli Mod - D38] (Eterna round: R97, puzzle: Exclusion 3) 56.5

Param item: CAAAUCAGGCGAGGAUAUCCGAAAGGAAGUGUAGGAGAAGGCGCGAAAUAUAAAACAUGAGGAUCACCCAUGUCGUCCCGUGUG [PowerStrip EXNG 1.21] (Eterna round: R96, puzzle: Exclusion NG 1) 130

Next:
Fill blank: measured apparent KD of MS2 coat protein of the sequence UGUCAGUCAGGAUAUGCAUACGUAGACAUGAGGAUCACCCAUGUGACGUGGGACUGGUGUGUAGAAGGGACGAACA [EX5 #79] (Eterna round: R97, puzzle: Exclusion 5) is ____. 28.6

Also UAUUUAUAUGAAGGAUAUACUUAACAUGAGGAUCACCCAUGUGGUGUUGUGAGUGAGUGAGUUUAGUAGAAGGUCAAUUCUUUU [JMF's solution 96] (Eterna round: R96, puzzle: Exclusion NG 2) ? 448

Also, AUAAUGUAAGGAUAUCAGUCGUACAGCUGCGGCUGUACGACUGAGAAGGUACAUGAGGAUCACCCAUGUGAUCA [E4/8-A3] (Eterna round: R97, puzzle: Exclusion 4) please. 1380

Queued: UUUAAUUUAAUUAAGAUCACAUGAGGAUCACCCAUGUAAUUAUAGGAUAUCAGCUCGUGUAGAGCUGAGAAGGAUAAUUACAUA [ExNG3/5-A3] (Eterna round: R96, puzzle: Exclusion NG 3) 72.7
